Test: Cmax in mouse at 10 mg/kg, po by LC-MS-MS analysis
Format: ADME, organism-based
Set-up: dose 10 mg/kg, route oral
Settings: in vivo
PROPERTY MEASURED: Cmax (ng/mL)
Number in ng/mL, nothing else.

-- ask I would be grateful if you could share the reported Cmax for O=C(CNC(=O)c1cccc(C(F)(F)F)c1)NC1CN([C@H]2CC[C@@](O)(c3cncs3)CC2)C1 .
-- reply 74

---

Test: AUC (last) in rat at 10 mg/kg, po by LC-MS-MS analysis
Format: ADME, organism-based
Parameters: time 0 - last, dose 10 mg/kg, route oral
Settings: plasma
PROPERTY MEASURED: AUC(0-t) (ng·h/mL)
Number in ng·h/mL, nothing else.

-- ask I would be grateful if you could share the reported AUC(0-t) for O=C(CNC(=O)c1cccc(C(F)(F)F)c1)NC1CN([C@H]2CC[C@@](O)(c3cncs3)CC2)C1 [JNJ-41443532] .
-- reply 416

---

Test: Cmax in dog at 6.7 mg/kg, po by LC-MS-MS analysis
Type: ADME, organism-based, Canis lupus familiaris
Set-up: dose 6.7 mg/kg, route oral
Conditions: in vivo
PROPERTY MEASURED: Cmax (ng/mL)
Number in ng/mL, nothing else.

-- ask I would be grateful if you could share the reported Cmax for O=C(CNC(=O)c1cccc(C(F)(F)F)c1)NC1CN([C@H]2CC[C@@](O)(c3cncs3)CC2)C1 [JNJ-41443532] .
-- reply 1620

---

Test: AUC (last) in monkey at 7.2 mg/kg, po by LC-MS-MS analysis
Assay type: ADME, organism-based, Macaca mulatta
Design: time 0 - last, dose 7.2 mg/kg, route oral
Settings: rhesus monkey, plasma
PROPERTY MEASURED: AUC(0-t) (ng·h/mL)
Number in ng·h/mL, nothing else.

-- ask I would be grateful if you could share the reported AUC(0-t) for O=C(CNC(=O)c1cccc(C(F)(F)F)c1)NC1CN([C@H]2CC[C@@](O)(c3cncs3)CC2)C1 .
-- reply 3060

---

inhibition at 5 min, 3 µM overview
Target: hERG (KCNH2) (Homo sapiens)
Test: Inhibition of human ERG expressed in HEK-293 cells assessed as K+-selective outward current at 3 uM at -80 mV holding potential after 5 mins by voltage patch-clamp method
Format: cell-based, HEK293
Details: HEK-293 cells expressing human ERG
Number in %, nothing else.

Some molecules with recorded inhibition at 5 min, 3 µM:
COc1ccc([C@]2(O)CC[C@H](N3CC(NC(=O)CNC(=O)c4cccc(C(F)(F)F)c4)C3)CC2)nc1
30
CC(C)Oc1ncc([C@]2(O)CC[C@H](N3CC(NC(=O)CNC(=O)c4cccc(C(F)(F)F)c4)C3)CC2)s1
49
CSc1ncc([C@]2(O)CC[C@H](N3CC(NC(=O)CNC(=O)c4cccc(C(F)(F)F)c4)C3)CC2)s1
77

// below: inhibition at 5 min, 3 µM requested for another molecule
-- ask Lab note: need inhibition at 5 min, 3 µM for CC(C)c1ncc([C@]2(O)CC[C@H](N3CC(NC(=O)CNC(=O)c4cccc(C(F)(F)F)c4)C3)CC2)s1 on hERG (KCNH2) (Homo sapiens), anyone have it?
-- reply 35

---

Experiment: Cmax in rat at 10 mg/kg, po by LC-MS-MS analysis
Type: ADME, organism-based
Design: dose 10 mg/kg, route oral
Settings: in vivo
PROPERTY MEASURED: Cmax

-- ask I would be grateful if you could share the reported Cmax for O=C(CNC(=O)c1cccc(C(F)(F)F)c1)NC1CN([C@H]2CC[C@@](O)(c3cncs3)CC2)C1 .
-- reply 100 ng/mL

---

Test: Oral bioavailability in mouse at 10 mg/kg by LC-MS-MS analysis
Assay type: ADME, organism-based
Conditions: in vivo
PROPERTY MEASURED: bioavailability (%)
Number in %, nothing else.

-- ask I would be grateful if you could share the reported bioavailability for O=C(CNC(=O)c1cccc(C(F)(F)F)c1)NC1CN([C@H]2CC[C@@](O)(c3cncs3)CC2)C1 .
-- reply 19

---

Assay: Oral bioavailability in monkey at 7.2 mg/kg by LC-MS-MS analysis
Format: ADME, organism-based, Macaca mulatta
Conditions: rhesus monkey, in vivo
PROPERTY MEASURED: bioavailability (%)
Number in %, nothing else.

-- ask I would be grateful if you could share the reported bioavailability for O=C(CNC(=O)c1cccc(C(F)(F)F)c1)NC1CN([C@H]2CC[C@@](O)(c3cncs3)CC2)C1 [JNJ-41443532] .
-- reply 25.4

---

Test: AUC (last) in dog at 6.7 mg/kg, po by LC-MS-MS analysis
Type: ADME, organism-based, Canis lupus familiaris
Set-up: time 0 - last, dose 6.7 mg/kg, route oral
Conditions: plasma
PROPERTY MEASURED: AUC(0-t) (ng·h/mL)
Number in ng·h/mL, nothing else.

-- ask I would be grateful if you could share the reported AUC(0-t) for O=C(CNC(=O)c1cccc(C(F)(F)F)c1)NC1CN([C@H]2CC[C@@](O)(c3cncs3)CC2)C1 .
-- reply 5890

---

Target: Voltage-gated inwardly rectifying potassium channel KCNH2 (Homo sapiens, UniProt Q12809)
Sequence (Q12809 whole entry): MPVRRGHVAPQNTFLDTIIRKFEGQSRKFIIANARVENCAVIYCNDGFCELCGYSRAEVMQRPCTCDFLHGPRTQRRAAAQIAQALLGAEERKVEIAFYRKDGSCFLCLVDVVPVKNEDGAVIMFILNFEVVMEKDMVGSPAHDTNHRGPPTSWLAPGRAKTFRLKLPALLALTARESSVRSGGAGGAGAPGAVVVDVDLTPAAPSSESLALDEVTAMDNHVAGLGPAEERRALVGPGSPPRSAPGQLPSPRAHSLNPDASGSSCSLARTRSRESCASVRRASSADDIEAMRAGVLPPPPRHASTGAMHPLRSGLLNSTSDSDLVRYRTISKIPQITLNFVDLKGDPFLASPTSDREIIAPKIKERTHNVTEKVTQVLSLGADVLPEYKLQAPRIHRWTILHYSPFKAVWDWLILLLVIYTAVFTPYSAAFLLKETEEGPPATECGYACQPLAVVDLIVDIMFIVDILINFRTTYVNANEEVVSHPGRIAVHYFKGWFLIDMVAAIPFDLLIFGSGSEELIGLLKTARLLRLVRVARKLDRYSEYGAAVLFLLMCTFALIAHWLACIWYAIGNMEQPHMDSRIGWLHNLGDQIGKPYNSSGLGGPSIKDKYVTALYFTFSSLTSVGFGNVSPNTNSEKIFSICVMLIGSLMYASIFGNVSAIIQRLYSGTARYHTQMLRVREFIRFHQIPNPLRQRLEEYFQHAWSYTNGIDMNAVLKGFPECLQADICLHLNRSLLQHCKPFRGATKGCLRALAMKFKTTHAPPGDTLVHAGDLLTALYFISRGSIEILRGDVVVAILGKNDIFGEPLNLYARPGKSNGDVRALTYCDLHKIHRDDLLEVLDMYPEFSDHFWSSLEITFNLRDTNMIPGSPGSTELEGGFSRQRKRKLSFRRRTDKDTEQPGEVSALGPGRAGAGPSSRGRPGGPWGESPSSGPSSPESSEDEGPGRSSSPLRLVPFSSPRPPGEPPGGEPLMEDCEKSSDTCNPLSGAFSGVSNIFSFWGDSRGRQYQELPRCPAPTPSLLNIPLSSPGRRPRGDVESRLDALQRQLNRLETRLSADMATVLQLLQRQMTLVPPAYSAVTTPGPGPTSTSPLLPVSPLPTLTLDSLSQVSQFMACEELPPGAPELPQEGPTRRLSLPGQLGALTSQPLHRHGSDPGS
Assay: Displacement of [3H]-astemizole from human ERG expressed in HEK293 cells after 1 hr by scintillation counting analysis
pIC50 overview
Value format note: pIC50 is -log10 of concentration (mol/L); just state the number.

-- ask I would be grateful if you could share the reported pIC50 for COc1ccc([C@]2(O)CC[C@H](N3CC(NC(=O)CNC(=O)c4cccc(C(F)(F)F)c4)C3)CC2)nc1 .
-- reply 4.60

-- ask Also CSc1ncc([C@]2(O)CC[C@H](N3CC(NC(=O)CNC(=O)c4cccc(C(F)(F)F)c4)C3)CC2)s1 ?
-- reply 5.22

-- ask Also CC(C)Oc1ncc([C@]2(O)CC[C@H](N3CC(NC(=O)CNC(=O)c4cccc(C(F)(F)F)c4)C3)CC2)s1 ?
-- reply 4.55

---

Assay: Plasma concentration in Hartley guinea pig up to cumulative dose of 10 mg/kg, iv by LC-MS-MS analysis
Assay type: ADME, organism-based, Cavia porcellus
Design: dose 10 mg/kg, route intravenous
Details: in vivo
PROPERTY MEASURED: concentration (µM)
Number in µM, nothing else.

CC(C)c1ncc([C@]2(O)CC[C@H](N3CC(NC(=O)CNC(=O)c4cccc(C(F)(F)F)c4)C3)CC2)s1
10
O=C(CNC(=O)c1cccc(C(F)(F)F)c1)NC1CN([C@H]2CC[C@@](O)(c3cncs3)CC2)C1 [JNJ-41443532]
26

-- ask I would be grateful if you could share the reported concentration for CC(C)Oc1ncc([C@]2(O)CC[C@H](N3CC(NC(=O)CNC(=O)c4cccc(C(F)(F)F)c4)C3)CC2)s1 .
-- reply 3
